- System: U251 CNS
- Experiment notes: NCI tumour cell line growth inhibition, 48 h
I'd be grateful if you could share measured TGI for these entries.

Query :: Quick one: give measured TGI for Cc1cc2cccc(Cl)c2nc1C(=O)c1ccccc1
Result :: > 100 µM

Query :: Quick one: give measured TGI for CN(C)S(=O)(=O)Nc1ccccn1
Result :: > 100 µM

Query :: Quick one: give measured TGI for c1ccc(N=c2snc(-c3ccccc3)s2)cc1
Result :: > 100 µM

Query :: Quick one: give measured TGI for COc1ccc(/C=C(/C(=O)O)c2cc(OC)c(OC)c(OC)c2)cc1
Result :: > 100 µM

Query :: Quick one: give measured TGI for CN(O)C(=O)Cc1ccc(OCc2cccc(Cl)c2)cc1
Result :: > 100 µM

Query :: Quick one: give measured TGI for C[Si](C)(C)c1ccc(CC2(Cc3ccc([Si](C)(C)C)cc3)CCNC2)cc1
Result :: 3.02 µM

Query :: Quick one: give measured TGI for CC(=O)OCCc1cccnc1/C=N/O
Result :: > 100 µM

Query :: Quick one: give measured TGI for NNC(=O)c1cnn(-c2ccnc3c(C(F)(F)F)cccc23)c1N
Result :: > 100 µM

Query :: Quick one: give measured TGI for CN(C)c1ccc2c(c1)oc(=O)c1ccccc12
Result :: 24.3 µM

Query :: Quick one: give measured TGI for CC(=O)OCC1OC(n2c(=S)[nH]c(-c3ccccc3)c(C#N)c2=O)C(OC(C)=O)C(OC(C)=O)C1OC(C)=O (stereo not drawn)
Result :: > 100 µM

Query :: Quick one: give measured TGI for O=C(O)CNC(=O)c1ccc([As](=O)(O)O)cc1
Result :: > 100 µM

Query :: Quick one: give measured TGI for CC1=CCCC(OC(N)=O)C1 (stereo not drawn)
Result :: > 100 µM

Query :: Quick one: give measured TGI for COc1cc2c(NCCCCCCO[N+](=O)[O-])ncnc2c(OC)c1OC
Result :: > 100 µM

Query :: Quick one: give measured TGI for N#Cc1c(OCCF)c2ccccc2n2c1nc1ccccc12
Result :: > 100 µM

Query :: Quick one: give measured TGI for OCc1ccccc1C1CSCSC1
Result :: > 100 µM

Query :: Quick one: give measured TGI for CN1CCN(Cc2ccc(NC(=O)c3cncc(C#Cc4cnc(N)c5ccccc45)c3)cc2C(F)(F)F)CC1
Result :: 0.763 µM

Query :: Quick one: give measured TGI for N#Cc1cnn2ccn(C3OC(COC(=O)c4ccccc4)C(OC(=O)c4ccccc4)C3OC(=O)c3ccccc3)c12 (stereo not drawn)
Result :: > 21.5 µM

Query :: Quick one: give measured TGI for O=C1OC[C@@H]2Cc3c([nH]c4ccccc34)[C@@H](c3ccc(O)cc3)N12
Result :: > 100 µM

Query :: Quick one: give measured TGI for CCn1c(=O)c2c3cc(O)ccc3oc2c2ccc(O)cc21
Result :: > 100 µM

Query :: Quick one: give measured TGI for CCOC(=O)c1cnc2[nH]ccn2c1=O
Result :: > 10 µM

Query :: Quick one: give measured TGI for CN(C)CCNC(=O)c1cccc2nc3c(Cl)cccc3nc12
Result :: 30.5 µM

Query :: Quick one: give measured TGI for CC(=O)/C=C/c1cccc(N=S)c1
Result :: 20.8 µM

Query :: Quick one: give measured TGI for CC1=C2c3ccccc3N(C(=O)/C=C/C(=O)O)[C@H]2[C@H]2C(=O)OC(=O)[C@H]2C1
Result :: > 10 µM

Query :: Quick one: give measured TGI for O=C(O)c1cc(S(=O)(=O)N=NC=C2c3ccccc3N(O)c3ccccc32)ccc1O
Result :: > 100 µM

Query :: Quick one: give measured TGI for CO/N=C1/c2sccc2[C@H](NC(=O)CNC(=O)OC(C)(C)C)[C@@H]1O
Result :: > 100 µM

Query :: Quick one: give measured TGI for O=C(/C=C(\[O-])c1ccccc1)CCCCCCC(=O)/C=C(\[O-])c1ccccc1.O=C(/C=C(\[O-])c1ccccc1)CCCCCCC(=O)/C=C(\[O-])c1ccccc1.O=C(/C=C(\[O-])c1ccccc1)CCCCCCC(=O)/C=C(\[O-])c1ccccc1.[La+3].[La+3]
Result :: > 50 µM

Query :: Quick one: give measured TGI for CC(=O)Nc1ccc(Cl)c(Cl)c1
Result :: > 100 µM

Query :: Quick one: give measured TGI for COC(=O)CCCC(=O)C(=Nc1c(Cl)cccc1Cl)NNc1ccc(Cl)cc1
Result :: > 100 µM

Query :: Quick one: give measured TGI for Nc1ncnc2c1ncn2C(=O)NC12CC3CC(CC(C3)C1)C2
Result :: > 100 µM

Query :: Quick one: give measured TGI for O=C1c2ccccc2C(=O)c2c1ccc1[nH]c(CCl)nc21
Result :: 6.56 µM

Query :: Quick one: give measured TGI for COc1cc2c(c(OC)c1OC)-c1ccc(NCc3ccccc3)c(=O)cc1[C@@H](NC(C)=O)CC2
Result :: 11.8 µM

Query :: Quick one: give measured TGI for N#CSCc1cccc(Nc2cc(=O)[nH]c(=O)[nH]2)c1
Result :: > 100 µM

Query :: Quick one: give measured TGI for O=C(O)Cc1c[nH]c2ccc(F)cc12
Result :: > 100 µM

Query :: Quick one: give measured TGI for COc1nc2c(cc1S(=O)(=O)c1ccccc1)CCc1c-2cnn1-c1ccccc1Cl
Result :: > 100 µM

Query :: Quick one: give measured TGI for Clc1ccc(Cc2nc3cc4ccccc4cc3[nH]2)cc1
Result :: 29.6 µM

Query :: Quick one: give measured TGI for Cc1c(N2C(=O)/C(=C\c3ccccc3O)N=C2c2ccccc2)c(=O)n(-c2ccccc2)n1C
Result :: > 100 µM

Query :: Quick one: give measured TGI for Cc1ccc(C(=O)Nc2ccc(CP(=O)(O)O)cc2)cc1NC(=O)c1cccc(NC(=O)Nc2cccc(C(=O)Nc3cc(C(=O)Nc4ccc(CP(=O)(O)O)cc4)ccc3C)c2)c1
Result :: > 100 µM

Query :: Quick one: give measured TGI for C=CC/C(C(=O)OC)=C(/C(=O)OC)N(CCC)CCC
Result :: > 100 µM

Query :: Quick one: give measured TGI for CCCCn1/c(=N/C(=S)N(C)C)ss/c1=N\C(=S)N(C)C
Result :: > 100 µM

Query :: Quick one: give measured TGI for CC(=O)CC(=O)c1cc2c(=O)oc(C)cc2oc1=O
Result :: > 37.5 µM

Query :: Quick one: give measured TGI for CC1=C[C@@H]2Cc3occc3C(C)(C)[C@@H]2CC1
Result :: 32.7 µM

Query :: Quick one: give measured TGI for CC(=O)c1ccc(N(/C=C/C(=O)C(F)(F)F)CC(=O)c2ccc(Cl)c(Cl)c2)cc1
Result :: 27.7 µM

Query :: Quick one: give measured TGI for Clc1cccc(NC=Nc2ccc(-c3nc4ccccc4s3)cc2)c1
Result :: 15.4 µM
